Hi there, I'd appreciate the recorded Fluorescence Intensity Geomean (normalized to background) for every entry that follows.
Molecular target: Cynomolgus monkey CD1a expressed on HEK-293 cells (Cynomolgus monkey, UniProt A0A2K5VQ68 17-326)
Sequence (A0A2K5VQ68 entry or part of it): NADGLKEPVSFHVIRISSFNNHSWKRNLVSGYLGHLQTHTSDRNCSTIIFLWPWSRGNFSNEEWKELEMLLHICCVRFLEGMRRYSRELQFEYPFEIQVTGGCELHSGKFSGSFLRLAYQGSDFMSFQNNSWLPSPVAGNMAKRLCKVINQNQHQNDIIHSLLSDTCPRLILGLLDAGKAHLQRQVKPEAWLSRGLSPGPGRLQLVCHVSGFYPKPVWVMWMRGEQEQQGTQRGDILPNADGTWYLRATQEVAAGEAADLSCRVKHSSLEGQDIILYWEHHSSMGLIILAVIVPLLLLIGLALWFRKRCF
Experiment: flow cytometry, HEK-293 cells, 0.01 µg/ml antibody
Hi, when you answer, please include the unit after the number. Thanks!

Consider the binder 16 (VR11834) (antibody, V domains shown, also called OX16; antibody 16) VH: EVQLVESGGGLVKPGGSLKLSCAASGFTFSNYAMSWVRQTPEKRLEWVAAINSNGGSAYYPDTVKDRFTISRDNAKNTLYLQMSSLRSEDTALYYCARRFYYDYGWFAYWGQGTLVTVSS VL: DIVLTQSPASLSASVGETVTITCRASENIDSYLAWYQQKQGKSPQLLVYAATLLADGVPSRFSGSGSGTQYSLKINSLQSEDVARYYCQHYYSSPWTFGGGTKLEIK and give its measured Fluorescence Intensity Geomean (normalized to background). 6.9 fold over background

Now try 110 (VR12112) (antibody, V domains shown, also called OX110; antibody 110) VH: QSVEESGGRLVTPGTPLTLTCTVSGFSLSSYAMIWVRQAPGKGLEWIGIINSSDNTHYATWAKGRFTISKTSTTVDLKITSPTTEDTATYFCARDPYDYGYGWYFDLWGPGTLVTVSS VL: AQVLTQTPSPVSAAVGGTVTINCQASQSVFNNKNLAWYQQKPGQPPKLLIYKASTLASGVSSRFKGSGSGTQFALTISGVQCDDAATYYCQGEFSCSSTDCVTFGGGTEVVVK . 1.2 fold over background

Now try 111 (VR12113) (antibody, V domains shown, also called OX111) VH: QSVEESGGRLVTPGTPLTLTCTASGFSLSTYAMSWVRQAPGKGLEWIGIISSSGSTYYASWAKGRFTISKTSTTVDLKITSPTTEDTATYFCARETWYWLDLWGQGTLVTVSS VL: AVEMTQTPASVSAAVGGTVTINCQASEDIYSNLAWYQQKPGQPPKLLIYGASTLASGVPSRFKGSGSGTEYTLTISGVQCDDAATYYCQCAYDSSSYGTPFGGGTEVVVK . 8.9 fold over background

Now try 77A (VR11851) (antibody, V domains shown, also called OX77a; antibody 77a) VH: QSVEESGGRLVTPGTPLTLTCTVSGFSLSSYAMSWVRQAPGKGLEWIGIISSSGTTYYASWAKGRFTISKTSTTVDLKITSPTTEDTATYFCARVDYYSSGWGGLWGPGTLVTVSS VL: AVEMTQTPASMSAAVGGTVTIKCQASEDIYSNLAWYQQKPGQPPKLLIYGASTLASGVPSRFKGSGSGTEYTLTISGVQCDDAATYYCQCTYDTSSYGNTFGGGTEMVVE . 1.7 fold over background
